// provenance: PubChem BioAssay (NCI)

Below, each entry is listed with its recorded TGI.
Tested on: HT29 colon
Assay: NCI tumour cell line growth inhibition, 48 h
Value Kind: TGI (µM)

In [3]: df
Out[3]:
                              sample_smiles  reading_unit  qualifier  numeric_value
0      c1ccc2c(c1)c1c(n2CCOCCN2CCOCC2)CCCC1            µM          =           31.6
1  Cc1ccc(OCCn2cc(Nc3ccccc3)c(=O)n(CCOc3ccc(C)cc3)c2=O)cc1            µM          >            100
2  COC(=O)CN1c2nc(C#N)c(C#N)nc2N(CC(=O)OC)c2nc(C#N)c(C#N)nc21            µM          =           12.1
3  CCOC(=O)NC(=O)c1cn(C2CCCCC2)c(=O)[nH]c1=O            µM          >            100
4          Nc1nc(N)c(N=O)c(Nc2ccc(Br)cc2)n1            µM          =           52.3
5  Cc1cccc(C2=C/C(=C(\SS/C(C(=O)c3ccc(OCC(=O)O)c(Cl)c3Cl)=C3\C=C(c4cccc(C)c4)SS3)C(=O)c3ccc(OCC(=O)O)c(Cl)c3Cl)SS2)c1            µM          >             75
